Answer each item with its documented Ki.
- target-under-test: single-chain tethered dimer of HIV protease (Human immunodeficiency virus 1)
- assay-notes: biochemical
- Assay type: biochemical
- Design: fused on or other part: A second copy of the same protease unit is joined to the first by a short peptide tether, giving one polypeptide
- protocol-conditions: read-out: HPLC K1; Table 2d; HIV protease inhibition, HPLC method

Recorded Ki, per entry:
O=C(COCc1ccccc1)c1cccc(CN2C(=O)N(Cc3cccc(C(=O)COCc4ccccc4)c3)C(Cc3ccccc3)C(O)C(O)C2Cc2ccccc2)c1 (stereo not shown) [Example 15BI] :: < 0.01 µM
O=C1N(Cc2ccc3[nH]ccc3c2)C(Cc2ccccc2)C(O)C(O)C(Cc2ccccc2)N1Cc1ccc2[nH]ccc2c1 (stereo not shown) [15DE] :: < 0.01 µM
N#Cc1cccc(CN2C(=O)N(Cc3cccc(-c4cc[nH]n4)c3)C(Cc3ccccc3)C(O)C(O)C2Cc2ccccc2)c1 (stereo not shown) [Example 15BV] :: < 0.01 µM
NC(=NO)c1cccc(CN2C(=O)NC(Cc3ccccc3)C(O)C(O)C2Cc2ccccc2)c1 (stereo not shown) [15AT] :: < 0.01 µM
[N-]=[N+]=NCCCCCN1C(=O)N(CCCCCN=[N+]=[N-])C(Cc2ccccc2)C(O)C(O)C1Cc1ccccc1 (stereo not shown) [15EM] :: 0.01 to 1 µM
O=C1N(Cc2cccc(-c3cn[nH]c3)c2)C(Cc2ccccc2)C(O)C(O)C(Cc2ccccc2)N1Cc1cccc(-c2cn[nH]c2)c1 (stereo not shown) [Example 15BN] :: < 0.01 µM
NC(=NO)c1cccc(CN2C(=O)N(Cc3ccc4ccccc4c3)C(Cc3ccccc3)C(O)C(O)C2Cc2ccccc2)c1 (stereo not shown) [15AN] :: < 0.01 µM
N#Cc1cccc(CN2C(=O)N(Cc3cccnc3)C(Cc3ccccc3)C(O)C(O)C2Cc2ccccc2)c1 (stereo not shown) [Example 15AR] :: < 0.01 µM
O=C1N(Cc2cccc(-c3cc[nH]n3)c2)C(Cc2ccccc2)C(O)C(O)C(Cc2ccccc2)N1Cc1ccc(O)c(O)c1 (stereo not shown) [Example 15CC] :: < 0.01 µM
NC(=NO)c1cccc(CN2C(=O)N(Cc3cccc(-c4cc[nH]n4)c3)C(Cc3ccccc3)C(O)C(O)C2Cc2ccccc2)c1 (stereo not shown) [Example 15BW] :: < 0.01 µM

Okay, here is my list. What is Ki for each of these?
1. CC(C)(C)C(=O)c1cccc(CN2C(=O)N(Cc3cccc(C(=O)C(C)(C)C)c3)C(Cc3ccccc3)C(O)C(O)C2Cc2ccccc2)c1 (stereo not shown) [Example 15XH]
2. O=C1N(Cc2ccc3cn[nH]c3c2)C(Cc2ccccc2)C(O)C(O)C(Cc2ccccc2)N1Cc1ccc2cn[nH]c2c1 (stereo not shown) [15CY]
3. N#Cc1cccc(CN2C(=O)N(Cc3ccc(O)cc3)C(Cc3ccccc3)C(O)C(O)C2Cc2ccccc2)c1 (stereo not shown) [Example 15AQ]
4. O=C1N(Cc2cccc(-c3cc[nH]n3)c2)C(Cc2ccccc2)C(O)C(O)C(Cc2ccccc2)N1Cc1cccc([N+](=O)[O-])c1 (stereo not shown) [Example 15CD]
5. O=C1N(Cc2ccc(O)cc2)C(Cc2ccccc2)C(O)C(O)C(Cc2ccccc2)N1Cc1cccc(-c2cc[nH]n2)c1 (stereo not shown) [15CA]
6. O=C(c1cccc(CN2C(=O)N(Cc3cccc(C(=O)c4ncc[nH]4)c3)C(Cc3ccccc3)C(O)C(O)C2Cc2ccccc2)c1)c1ncc[nH]1 (stereo not shown) [Example 15XJ]
7. C[Si](C)(C)CCOCn1ccnc1-c1cccc(CN2C(=O)N(Cc3cccc(-c4ncc[nH]4)c3)C(Cc3ccccc3)C(O)C(O)C2Cc2ccccc2)c1 (stereo not shown) [Example 15YK]

["< 0.01 µM", "< 0.01 µM", "< 0.01 µM", "< 0.01 µM", "< 0.01 µM", "< 0.01 µM", "0.01 to 1 µM"]

Okay, here is my list. What is Ki for each of these?
1. O=C1N(Cc2cccc(-c3cnc[nH]3)c2)C(Cc2ccccc2)C(O)C(O)C(Cc2ccccc2)N1Cc1cccc(-c2cnc[nH]2)c1 (stereo not shown) [Example 15BK]
2. N#Cc1cc(CN2C(=O)N(Cc3cccc(-c4cc[nH]n4)c3)C(Cc3ccccc3)C(O)C(O)C2Cc2ccccc2)ccc1F (stereo not shown) [Example 15CF]

1. < 0.01 µM
2. < 0.01 µM

Okay, here is my list. What is Ki for each of these?
1. Nc1cccc(CN2C(=O)N(Cc3cccc(-c4cc[nH]n4)c3)C(Cc3ccccc3)C(O)C(O)C2Cc2ccccc2)c1 (stereo not shown) [Example 15CE]
2. COC(=O)c1cccc(CN2C(=O)N(Cc3cccc(-c4cc[nH]n4)c3)C(Cc3ccccc3)C(O)C(O)C2Cc2ccccc2)c1 (stereo not shown) [Example 15BP]
3. N#CCc1cccc(CN2C(=O)N(Cc3cccc(CC#N)c3)C(Cc3ccccc3)C(O)C(O)C2Cc2ccccc2)c1 (stereo not shown) [15DU]

1. < 0.01 µM
2. < 0.01 µM
3. 0.01 to 1 µM

---

Answer each item with its documented melting point.

O=C1N(Cc2ccc3ccccc3c2)C(Cc2ccccc2)C(O)C(O)C(Cc2ccccc2)N1CC1CCCC1 (centres unmarked) :: 89 to 92 °C
O=[N+]([O-])c1cccc(CN2C(Cc3ccccc3)C(O)C(O)C(Cc3ccccc3)N(Cc3cccc([N+](=O)[O-])c3)S2(=O)=O)c1 (centres unmarked) [23L] :: 196 to 198 °C
CN(C=O)c1cccc(CN2C(=O)N(Cc3cccc(N(C)C=O)c3)C(Cc3ccccc3)C(O)C(O)C2Cc2ccccc2)c1 (centres unmarked) [15F] :: 82 °C

Okay, here is my list. What is melting point for each of these?
1. O=C1N(Cc2c(F)c(F)c(F)c(F)c2F)C(Cc2ccccc2)C(O)C(O)C(Cc2ccccc2)N1Cc1c(F)c(F)c(F)c(F)c1F (centres unmarked)
2. CCCCCCN1C(=O)N(CCCCCC)C(Cc2ccccc2)C(O)C(O)C1Cc1ccccc1 (centres unmarked)

193 to 195 °C
110 to 112 °C

---

endpoint: melting point (°C)
Answers are plain numbers, in °C.

NC(=NO)c1ccc(CN2C(=O)N(Cc3ccc(CO)cc3)C(Cc3ccccc3)C(O)C(O)C2Cc2ccccc2)cc1 (stereo not shown) [15AI] :: 215

We now examine a further compound.
Any idea what melting point was measured for O=C1N(CC2CC2)C(Cc2ccc([N+](=O)[O-])cc2)C(O)C(O)C(Cc2ccccc2[N+](=O)[O-])N1CC1CC1 (stereo not shown) [Example 20A] ?
209.8

---

- target-under-test: single-chain tethered dimer of HIV protease (Human immunodeficiency virus 1, UniProt P04585)
- assay-notes: biochemical
- Format: biochemical
endpoint: Ki

Recorded Ki, per entry:
O=C1N(Cc2ccccc2)C(Cc2ccccc2)C(O)C(O)C(Cc2ccccc2)N1Cc1ccc2ccccc2n1 (centres unmarked) :: 10 to 1000 nM
O=C1c2ccccc2C(O)C(O)c2ccccc21 (centres unmarked) [Example 26A] :: > 1000 nM
CCCCN1C(=O)N(Cc2ccccc2)C(Cc2ccccc2)C(O)C(O)C1Cc1ccccc1 (centres unmarked) :: < 10 nM
O=C1N(Cc2ccc3ccccc3c2)C(Cc2ccccc2)C(O)C(O)C(Cc2ccccc2)N1CC1CCCC1 (centres unmarked) :: < 10 nM
CC(C)N1C(=O)N(Cc2cccc(O)c2)C(Cc2ccccc2)C(O)C(O)C1Cc1ccccc1 (centres unmarked) :: < 10 nM

Okay, here is my list. What is Ki for each of these?
1. O=C1N(Cc2cccnc2)C(Cc2ccccc2)C(O)C(O)C(Cc2ccccc2)N1Cc1cccnc1 (centres unmarked)
2. O=CNc1cccc(CN2C(=O)N(Cc3cccc(NC=O)c3)C(Cc3ccccc3)C(O)C(O)C2Cc2ccccc2)c1 (centres unmarked)
3. O=C1N(Cc2ccc(O)cc2)C(Cc2ccccc2)C(O)C(O)C(Cc2ccccc2)N1Cc1ccc(O)cc1 (centres unmarked)

1: < 10 nM; 2: < 10 nM; 3: < 10 nM

---

Answer each item with its documented melting point.

Recorded melting point, per entry:
N#CN=C1N(Cc2ccc(OCc3ccccc3)cc2)C(Cc2ccccc2)C(O)C(O)C(Cc2ccccc2)N1Cc1ccc(OCc2ccccc2)cc1 (stereo not shown) :: 90.1 °C
CCCN1C(=O)N(CCC)C(Cc2ccccc2)C(O)C(O)C1Cc1ccccc1 (stereo not shown) :: 180 to 182 °C
O=C1N(Cc2ccccc2)C(Cc2ccccc2)C(O)C(O)C(Cc2ccccc2)N1Cc1ccc2ccccc2c1 (stereo not shown) :: 90 to 92 °C

We now examine a further compound.
Any idea what melting point was measured for CNc1cccc(CN2C(=O)N(Cc3ccc4ccccc4c3)C(Cc3ccccc3)C(O)C(O)C2Cc2ccccc2)c1 (stereo not shown) [15WZ] ?
98 to 100 °C

---

- target-under-test: single-chain tethered dimer of HIV protease (Human immunodeficiency virus 1)
- assay-notes: biochemical
- Assay type: biochemical
- Parameters: fused on or other part: A second copy of the same protease unit is joined to the first by a short peptide tether, giving one polypeptide
- protocol-conditions: HIV protease inhibition, HPLC method; Table 2d; read-out: HPLC K1
pKi: −log10 of the molar value.
endpoint: pKi

O=C1NC(Cc2ccccc2)C(O)C(O)C(Cc2ccccc2)N1Cc1ccco1 (centres unmarked) [Example 15FV] :: > 8.00
O=C(NCCCCCN1C(=O)N(CCCCCNC(=O)c2cnccn2)C(Cc2ccccc2)C(O)C(O)C1Cc1ccccc1)c1cnccn1 (centres unmarked) [15FF] :: < 6.00
Cl.Cl.O=C(NCCCCCN1C(=O)N(CCCCCNC(=O)c2ccncc2)C(Cc2ccccc2)C(O)C(O)C1Cc1ccccc1)c1ccncc1 (centres unmarked) [15FA] :: 6.00 to 8.00
O=C1N(Cc2coc(CO)c2)C(Cc2ccccc2)C(O)C(O)C(Cc2ccccc2)N1Cc1coc(CO)c1 (centres unmarked) [Example 15FP] :: > 8.00

Okay, here is my list. What is pKi for each of these?
1. O=C1N(Cc2ccc(CO)o2)C(Cc2ccccc2)C(O)C(O)C(Cc2ccccc2)N1Cc1ccc(CO)o1 (centres unmarked) [15FY]
2. O=C(NCCCCCN1C(=O)N(CCCCCNC(=O)c2ccccc2F)C(Cc2ccccc2)C(O)C(O)C1Cc1ccccc1)c1ccc(F)cc1 (centres unmarked) [15FC]
3. O=C(NCCCCCN1C(=O)N(CCCCCNC(=O)c2cccc(F)c2)C(Cc2ccccc2)C(O)C(O)C1Cc1ccccc1)c1cccc(F)c1 (centres unmarked) [15EY]
4. CC(CCCN1C(=O)N(CCCC(C)n2ccnc2)[C@H](Cc2ccccc2)[C@H](O)[C@@H](O)[C@H]1Cc1ccccc1)n1ccnc1 (some centres unmarked) [15FK]

6.00 to 8.00
6.00 to 8.00
6.00 to 8.00
< 6.00
